- assayedTarget: T1, ADI-22523 Fab
- T1 construct: anti-CD3 Fab by papain digestion of the IgG
- T1 sequence (VH, as listed by the source limits assumed, chain 1 of 2): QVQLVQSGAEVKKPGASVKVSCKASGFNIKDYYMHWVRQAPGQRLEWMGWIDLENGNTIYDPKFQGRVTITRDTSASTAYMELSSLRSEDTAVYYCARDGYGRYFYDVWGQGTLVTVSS
- T1 sequence (VL, as listed by the source limits assumed, chain 2 of 2): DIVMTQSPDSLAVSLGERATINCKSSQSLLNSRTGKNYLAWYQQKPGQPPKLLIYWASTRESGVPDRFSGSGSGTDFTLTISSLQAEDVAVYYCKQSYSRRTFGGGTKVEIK
- assayRemarks: BLI; tip anti-ID IgG, solution ADI-22523 Fab
pKd: −log10 of the molar value.
Where pKd equals or exceeds 8, the correct label is T; where it does not, the label is F.

binder: ADI-30242 (antibody, V domains shown, anti-ID IgG) VH: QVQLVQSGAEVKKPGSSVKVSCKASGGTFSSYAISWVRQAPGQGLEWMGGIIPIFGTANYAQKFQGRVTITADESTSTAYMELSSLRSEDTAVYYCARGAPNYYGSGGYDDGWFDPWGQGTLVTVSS VL: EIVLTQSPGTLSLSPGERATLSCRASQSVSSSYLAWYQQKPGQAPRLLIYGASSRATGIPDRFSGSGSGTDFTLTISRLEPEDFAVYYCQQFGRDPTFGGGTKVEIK
class: F

Then this binder:
**Query** Please tell me: is the binder ADI-34134 IgG (antibody, V domains shown) VH: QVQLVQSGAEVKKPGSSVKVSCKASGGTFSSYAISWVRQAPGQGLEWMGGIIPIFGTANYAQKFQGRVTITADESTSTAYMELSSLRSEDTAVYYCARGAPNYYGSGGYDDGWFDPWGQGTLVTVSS VL: EIVLTQSPGTLSLSPGERATLSCRASQSVSSDYLAWYQQKPGQAPRLLIYGASSRATGIPDRFSGSGSGTDFTLTISRLEPEDFAVYYCQQFGRVPTFGGGTKVEIK at or over 8 in terms of pKd?
**Result** T
